Would you kindly list inhibition at 10 µM for each of these compounds?
targetOrSystem: ASM (Homo sapiens, UniProt P17405)
Construct: A protein in cultivated cells was extracted, a buffer and a fluorescently-labeled reaction substrate were added; endogenous in cells
assayNotes: Inhibition of compounds on ASM activity (cell protein extract, fluorescently-labeled substrate)
Type: biochemical
experimentalSetup: 10 µM
Answers are plain numbers, in %.

# example entries with known answers
> print(dat)
                                   compound  resultnumber
1  COc1ccc(COc2ccc(-n3ccc4ccc(C(=O)NO)cc43)cc2)cc1 [II-2]            88
2  O=C(NO)c1ccc2ncn(-c3ccc(OCc4ccc(F)cc4)cc3)c2c1 [Compound I-10]            50
3  COc1ccc(COc2ccc(-n3cnc4ccc(C(=O)NO)cc43)cc2)cc1 [Compound I-12]            82
4  O=C(NO)c1ccc2ccn(-c3ccc(OCc4ccc(C(F)(F)F)cc4)cc3)c2c1 [II-1]            91
5  O=C(NO)c1ccc2ncn(-c3ccc(OCc4ccccn4)cc3)c2c1 [Compound I-13]            22
6  O=C(NO)c1ccc2ncn(-c3ccc(OCc4cc(C(F)(F)F)cc(C(F)(F)F)c4)cc3)c2c1 [Compound I-9]            93
7  O=C(NO)c1ccc2ncn(-c3ccc(OCc4ccc(C(F)(F)F)cn4)cc3)c2c1 [Compound I-14]            76

Proceeding to the next compound to report its inhibition at 10 µM.
Q: What does the data say about its inhibition at 10 µM? Entry: N#Cc1ccc(COc2ccc(-n3cnc4ccc(C(=O)NO)cc43)cc2)cc1 [Compound I-11]
Ans: 83

====

targetOrSystem: ASM (Homo sapiens, UniProt P17405)
Construct: A protein in cultivated cells was extracted, a buffer and a fluorescently-labeled reaction substrate were added; endogenous in cells
Sequence (P17405 47-631): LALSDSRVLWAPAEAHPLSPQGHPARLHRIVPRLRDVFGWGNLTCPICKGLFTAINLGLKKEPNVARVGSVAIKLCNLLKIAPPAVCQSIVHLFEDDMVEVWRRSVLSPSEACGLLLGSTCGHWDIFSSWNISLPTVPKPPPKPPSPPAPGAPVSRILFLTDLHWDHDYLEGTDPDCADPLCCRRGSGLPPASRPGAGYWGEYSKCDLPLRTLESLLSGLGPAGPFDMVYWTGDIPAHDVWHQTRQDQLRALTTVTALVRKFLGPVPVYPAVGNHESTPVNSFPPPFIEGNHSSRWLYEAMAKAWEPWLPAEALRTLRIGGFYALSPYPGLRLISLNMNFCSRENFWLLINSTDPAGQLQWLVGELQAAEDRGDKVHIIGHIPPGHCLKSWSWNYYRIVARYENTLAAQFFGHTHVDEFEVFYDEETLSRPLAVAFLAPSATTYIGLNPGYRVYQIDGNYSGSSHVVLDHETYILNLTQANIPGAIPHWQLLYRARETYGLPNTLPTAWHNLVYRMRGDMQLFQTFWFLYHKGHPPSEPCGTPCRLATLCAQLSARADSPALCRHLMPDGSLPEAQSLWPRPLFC
assayNotes: Inhibition of compounds on ASM activity (cell protein extract, fluorescently-labeled substrate)
experimentalSetup: protein extracted from cultivated cells, fluorescently-labeled substrate
parameterMeasured: pIC50
One number for each entry, as −log10 of the molar value.

> print(dat)
                                   compound                      targetorsystem  resultnumber
1  O=C(NO)c1ccc2ncn(-c3ccc(OCc4ccc(C(F)(F)F)cc4)cc3)c2c1 [Compound I-3]  ASM (Homo sapiens, UniProt P17405)          5.43

Hey, quick one: what's pIC50 for each of these?
1. O=C(NO)c1ccc2ncn(-c3ccc(OCc4ccc(Cl)cc4)cc3)c2c1 [Compound I-1]
2. O=C(NO)c1ccc2ncn(CCCOCc3ccc(C(F)(F)F)cc3)c2c1 [Compound I-5]
3. O=C(NO)c1ccc2ncn(-c3ccc(OCc4cccc(C(F)(F)F)c4)cc3)c2c1 [Compound I-6]
4. O=C(NO)c1ccc2ncn(-c3ccc(OCc4ccc(Cl)c(C(F)(F)F)c4)cc3)c2c1 [Compound I-7]
5. O=C(NO)c1ccc2ncn(-c3ccc(OCc4ccc(C(F)(F)F)cc4C(F)(F)F)cc3)c2c1 [Compound I-8]

Ans:
[6.33, 5.56, 5.91, 6.41, 5.94]
